Experiment: qHTS of pediatric cancer cell lines to identify multiple opportunities for drug repurposing: Primary screen for LAN-5 cells (AID 1347100)
Details: LAN-5 neuroblastoma viability, CellTiter-Glo luminescence, 48 h; series mostly up to 46 µM
Results filed as inconclusive are left out. Activity calls are given as the source filed them. Calls come from the whole dose curve; as a rule, active = well fitted cell-killing curve with a large enough effect; inconclusive = small, poorly fitted or top-dose-only effect; inactive = no such curve, though single readings can be large or run the other way.
Valid outcomes are listed here; reply with one: active, inactive

* CC(C)(C)CC(C)(C)c1ccc(OCCOCC[N+](C)(C)Cc2ccccc2)cc1 | active

Data request: Per the assay record, what outcome was assigned to Cc1c(C)n(CCN(C)C)c2ccc(C(=O)OCCN(C)C)cc12 ?
Data returned: inactive

Data request: Another compound to check: C[C@H]1C[C@H]2[C@@H]3CCC4=CC(=O)C=C[C@]4(C)[C@@]3(Cl)[C@@H](O)C[C@]2(C)[C@@]1(O)C(=O)CO
Data returned: inactive

----------
Test: Cell Viability - LYMP1-002 - Assay at 16 hr (AID 948)
Conditions: LYMP1-002 lymphoblastoid cell viability; series mostly up to 92.2 µM
Results filed as inconclusive are left out. The source made the active and inactive calls. Calls come from the whole dose curve; as a rule, active = well fitted cell-killing curve with a large enough effect; inconclusive = small, poorly fitted or top-dose-only effect; inactive = flat fitted curve, though single readings scatter.
Valid outcomes are listed here; reply with one: TRUE (active), FALSE (inactive)

Data request: Per the assay record, what outcome was assigned to Nc1ccc(C(=O)O)cc1 ?
Data returned: FALSE

Data request: Another compound to check: COc1cccc2c1C(=O)c1c(O)c3c(c(O)c1C2=O)C[C@@](O)(C(=O)CO)C[C@@H]3O[C@H]1C[C@H](N)[C@H](O)[C@H](C)O1
Data returned: TRUE

Data request: Another compound to check: CCCCCCc1ccc(O)cc1O
Data returned: FALSE

Data request: Another compound to check: O=C(O)CCCCC(=O)O
Data returned: FALSE

Data request: Another compound to check: CC(C)(C)CC(C)(C)c1ccc(OCCOCC[N+](C)(C)Cc2ccccc2)cc1
Data returned: TRUE

Data request: Another compound to check: C=CCc1ccc(O)c(OC)c1
Data returned: FALSE

Data request: Another compound to check: CN(C)/N=N/c1nc[nH]c1C(N)=O
Data returned: FALSE

Data request: Another compound to check: Oc1ccc(O)cc1
Data returned: TRUE

Data request: Another compound to check: CC/C(=C(/CC)c1ccc(O)cc1)c1ccc(O)cc1
Data returned: FALSE

Data request: Another compound to check: O=C1OC(c2ccc(O)cc2)(c2ccc(O)cc2)c2ccccc21
Data returned: FALSE

----------
Tested on: CP185
Assay: qHTS profiling for inhibitors of Plasmodium falciparum proliferation (AID 504749); note: nearly all actives have a fitted effect of over 60% in size
Conditions: P. falciparum in erythrocytes, SYBR Green DNA, 72 h; series mostly up to 28.7 µM
Records with an inconclusive call do not appear. The source made the active and inactive calls. The call rests on the fitted dose curve; in most records, active means well fitted inhibition curve with a large enough effect; inconclusive means small, poorly fitted or top-dose-only effect; inactive means flat fitted curve, though single readings scatter.
Valid outcomes are listed here; reply with one: active, inactive

Data request: Per the assay record, what outcome was assigned to O=C1[C@H]2CCCC[C@H]2C(=O)N1CCCCN1CCN(c2nsc3ccccc23)CC1 ?
Data returned: inactive

Data request: Another compound to check: Cc1c(C)n(CCN(C)C)c2ccc(C(=O)OCCN(C)C)cc12
Data returned: inactive

Data request: Another compound to check: COc1cc(OC)cc(OC)c1
Data returned: inactive

Data request: Another compound to check: CC[N+](CC)(CCNC(=O)C(=O)NCC[N+](CC)(CC)Cc1ccccc1Cl)Cc1ccccc1Cl
Data returned: active

----------
Test: qHTS of pediatric cancer cell lines to identify multiple opportunities for drug repurposing: Primary screen for SK-N-MC cells (AID 1347093)
Conditions: SK-N-MC viability, CellTiter-Glo luminescence, 48 h; series mostly up to 46 µM
Records with an inconclusive call do not appear. The source made the active and inactive calls. Calls follow the shape of the dose curve; as a rule, active = well fitted cell-killing curve with a large enough effect; inconclusive = small, poorly fitted or top-dose-only effect; inactive = no such curve, though single readings can be large or run the other way.
Valid outcomes are listed here; reply with one: 1 = active, -1 = inactive

- CC(=O)OCC(=O)NCCCOc1cccc(CN2CCCCC2)c1: -1

Data request: Per the assay record, what outcome was assigned to CC[C@@H](CO)NCCN[C@@H](CC)CO ?
Data returned: -1

Data request: Another compound to check: Nc1ccn([C@@H]2O[C@H](CO)[C@@H](O)C2(F)F)c(=O)n1
Data returned: 1

Data request: Another compound to check: CCC(C(=O)OCCN(CC)CC)c1ccccc1 (stereo unspecified)
Data returned: 1

Data request: Another compound to check: CC(C)(CO)[C@@H](O)C(=O)NCCCO
Data returned: -1

Data request: Another compound to check: CC(=O)Nc1c(I)cc(I)c(C(=O)O)c1I
Data returned: -1

Data request: Another compound to check: C[C@]12C=CC(=O)C=C1CC[C@@H]1[C@@H]2[C@@H](O)C[C@@]2(C)[C@H]1CC[C@]2(O)C(=O)CO
Data returned: -1

Data request: Another compound to check: CCCCC(=O)O[C@]1(C(=O)CO)CC[C@H]2[C@@H]3CCC4=CC(=O)CC[C@]4(C)[C@H]3[C@@H](O)C[C@@]21C
Data returned: -1

Data request: Another compound to check: CCN(CC)CCNC(=O)COc1ccc(Cl)cc1
Data returned: -1

----------
Assay: Drug repurposing screens with cells derived from glioblastoma tumor samples (AID 1345199); note: % is set by controls: 0 for no effect and ±100 for the full control effect; nearly all actives have a fitted effect of over 40% in size
Conditions: GBM patient neurospheres viability, ATP luminescence, 48 h; at 45.9 µM (top of the series); tumour line B
Records with an inconclusive call do not appear. The source made the active and inactive calls. Calls follow the shape of the dose curve; as a rule, active = well fitted inhibition curve with a large enough effect; inconclusive = small, poorly fitted or top-dose-only effect; inactive = flat fitted curve, though single readings scatter.
metric name: activity, negative = cell killing

Worked set:
• O=S1(=O)c2cccc3cccc(c23)N1CCCN1CCN(c2ccc(F)cc2)CC1 = -28.9% (inactive)
• CC(O)C(=O)O (centres undefined) = -5.68% (inactive)
• COC(=O)[C@H]1[C@H]2C[C@H]3c4[nH]c5ccccc5c4CCN3C[C@H]2CC[C@@H]1O = -4.34% (inactive)
• COc1cccc(OC)c1C(=O)N[C@@H]1C(=O)N2[C@@H]1SC(C)(C)[C@@H]2C(=O)O = -0.637% (inactive)
• O=C(Nc1ccc(Cl)c(Cl)c1)C1CC1 = -26.9% (inactive)

Data request: GET /values?readout=activity, negative = cell killing&item= Cc1onc(-c2c(Cl)cccc2Cl)c1C(=O)N[C@@H]1C(=O)N2[C@@H]1SC(C)(C)[C@@H]2C(=O)O
Data returned: -4.57% (inactive)

Data request: Another molecule to check: O=c1ccc2ccccc2o1
Data returned: -10.7% (inactive)

Data request: Another molecule to check: CC(=O)OCC(=O)[C@@]12N=C(C)O[C@@H]1C[C@H]1[C@@H]3CCC4=CC(=O)C=C[C@]4(C)[C@H]3[C@@H](O)C[C@@]12C
Data returned: -9.58% (inactive)

Data request: Another molecule to check: CN(C)CCOc1ccccc1Cc1ccccc1
Data returned: -0.223% (inactive)

Data request: Another molecule to check: O=C1CCC(c2ccc(-n3ccnc3)cc2)=NN1
Data returned: -6.09% (inactive)

----------
Test: Cell Viability - LYMP1-003 - Assay at 24 hr (AID 963)
Settings: LYMP1-003 lymphoblastoid cell viability; series mostly up to 92.2 µM
Description: NIH Chemical Genomics Center [NCGC] NIH Molecular Libraries Screening Centers Network [MLSCN] National Institutes of Environmental Health Sciences [NIEHS] National Toxicology Program [NTP] We have developed a 1536-well cell-based assay for quantitative high throughput screening (qHTS) against a number of cell lines to determine in vitro cytotoxicity of small molecules. […] 8. Detection; Luminescence; Viewlux plate reader […]
Activity calls are given as the source filed them. Calls come from the whole dose curve; as a rule, active = well fitted cell-killing curve with a large enough effect; inconclusive = small, poorly fitted or top-dose-only effect; inactive = flat fitted curve, though single readings scatter.
Valid outcomes are listed here; reply with one: active, inactive

Illustrative cases are given below, each with its answer.
- CN(C)/N=N/c1nc[nH]c1C(N)=O: inactive
- CC/C(=C(/CC)c1ccc(O)cc1)c1ccc(O)cc1: inactive
- CC(=O)Oc1ccc(C(c2ccc(OC(C)=O)cc2)c2ccccn2)cc1: inactive
- COC1=CC(=O)C[C@@H](C)[C@]12Oc1c(Cl)c(OC)cc(OC)c1C2=O: inactive
- Oc1ccc(O)cc1: active

Data request: Per the assay record, what outcome was assigned to CC(O)C(=O)O (stereo not drawn) ?
Data returned: inactive

Data request: Another molecule to check: COc1cccc2c1C(=O)c1c(O)c3c(c(O)c1C2=O)C[C@@](O)(C(C)=O)C[C@@H]3O[C@H]1C[C@H](N)[C@H](O)[C@H](C)O1
Data returned: active

Data request: Another molecule to check: CCCCCCc1ccc(O)cc1O
Data returned: inactive

----------
Assay: qHTS Assay for Identifying Gametocytocidal Compounds (AID 743244);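 note: % is set by controls: 0 for no effect and ±100 for the full control effect; actives lower the fluorescent signal which means gametocytes are killed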
Conditions: P. falciparum 3D7 stage III-V gametocytes, alamarBlue, 72 h; hits give low values
Records with an inconclusive call do not appear.
Property: max response; scope: individual molecules
Dear colleague, please return just the value in %, with no unit written.

• CN(C(=O)CN(CCO)CC(=O)N(C)C(C)(C)Cc1ccccc1)C(C)(C)Cc1ccccc1 = -1.55
• CN=C(NC#N)NCCSCc1csc(N=C(N)N)n1 = 5.67
• c1ccc(OCc2ccc(CCCN3CCOCC3)cc2)cc1 = -2.94

Data request: GET /values?readout=max response&item= Cc1c(C(C)C)c(=O)n(-c2ccccc2)n1C
Data returned: 39.2

Data request: Another molecule to check: COc1ccc(C2C(=O)c3ccccc3C2=O)cc1
Data returned: 5.04

Data request: Another molecule to check: COC1=CC(=O)C[C@@H](C)[C@]12Oc1c(Cl)c(OC)cc(OC)c1C2=O
Data returned: 1.7

Data request: Another molecule to check: CN1CCN(C(c2ccccc2)c2ccccc2)CC1
Data returned: -1.32

Data request: Another molecule to check: CC1=C(C(=O)OC(C)C)C(c2cccc([N+](=O)[O-])c2)C(C(=O)OC2CN(C(c3ccccc3)c3ccccc3)C2)=C(N)N1 (stereo not given)
Data returned: 7.23

Data request: Another molecule to check: CC(=O)Oc1ccc(C(c2ccc(OC(C)=O)cc2)c2ccccn2)cc1
Data returned: 7.87

Data request: Another molecule to check: C=C1C[C@H]2[C@@H]3C=C(C)C4=CC(=O)CC[C@]4(C)[C@H]3CC[C@]2(C)[C@@]1(OC(C)=O)C(C)=O
Data returned: 18
